test system: rice sheath blight strains; assay: Bactericidal activity test: resistance to rice sheath blight (live pot test); type: in vivo; details: Oryza sativa, 144 h, read-out: Resistance to rice sheath blight (%)/400mg/L
Quick rule for you: pest or weed control at 400 µg/mL at 60% or higher means Satisfied, lower means Not satisfied.

compound="Cc1ccc(S(=O)(=O)n2c3ccc(Cl)cc3c3c2cc2ccccc2[n+]3C)cc1 [Example 5]" group="Not satisfied"
compound="Cc1ccc(S(=O)(=O)n2c3ccccc3c3c2cc2cc(Br)ccc2[n+]3C)cc1 [Example 13]" group="Not satisfied"
compound="C[n+]1c2ccccc2cc2c1c1ccccc1n2S(=O)(=O)c1ccccc1 [Example 22]" group="Not satisfied"

Say whether Cc1ccc(S(=O)(=O)n2c3ccccc3c3c2cc2ccc(C)cc2[n+]3C)cc1 [Example 16] shows pest or weed control at 400 µg/mL of 60% or more.
Satisfied

Say whether Cc1ccc(S(=O)(=O)n2c3ccccc3c3c2cc2cc(C)ccc2[n+]3C)cc1 [Example 9] shows pest or weed control at 400 µg/mL of 60% or more.
Satisfied

Say whether Cc1ccc(S(=O)(=O)n2c3ccccc3c3c2cc2ccccc2[n+]3Cc2ccccc2)cc1 [Example 21] shows pest or weed control at 400 µg/mL of 60% or more.
Not satisfied

Say whether Cc1ccc(S(=O)(=O)n2c3ccccc3c3c2cc2ccccc2[n+]3CC(C)(C)C)cc1 [Example 20] shows pest or weed control at 400 µg/mL of 60% or more.
Not satisfied

* * *

Please go through the items and note down their pest or weed control at 400 µg/mL.
tested on: rice sheath blight strains; experiment: Bactericidal activity test: resistance to rice sheath blight (live pot test); assay type: in vivo; conditions: Oryza sativa, 144 h, read-out: Resistance to rice sheath blight (%)/400mg/L
Numbers only, in %.

entry_smiles=COC(=O)c1ccc2c(c1)cc1c(c3ccccc3n1S(=O)(=O)c1ccc(C)cc1)[n+]2C target_system="rice sheath blight strains" unit_label=% reported_result=40
entry_smiles=Cc1ccc(S(=O)(=O)n2c3ccccc3c3c2cc2ccccc2[n+]3C)cc1 target_system="rice sheath blight strains" unit_label=% reported_result=95
entry_smiles=Cc1ccc(S(=O)(=O)n2c3ccccc3c3c2cc2cc(F)ccc2[n+]3C)cc1 target_system="rice sheath blight strains" unit_label=% reported_result=40

Please state pest or weed control at 400 µg/mL for every molecule in the list that follows.
1. Cc1ccc(S(=O)(=O)n2c3ccc(C)cc3c3c2cc2ccccc2[n+]3C)cc1
2. Cc1ccc(S(=O)(=O)n2c3ccc(Br)cc3c3c2cc2ccccc2[n+]3C)cc1

40
40

* * *

Tested on: rice sheath blight strains
Assay: Bactericidal activity test: resistance to rice sheath blight (live pot test)
Assay type: in vivo
Conditions: Oryza sativa, 144 h, read-out: Resistance to rice sheath blight (%)/400mg/L
Method: Bactericidal activity test, the determination procedure is as follows: Test of resistance to rice sheath blight: Select uniformly growing rice seedlings and spray them on the leaves at the set concentration, set a water sprayring group as blank control, every treatment was repeated twice. After 24h, the rice seedlings were inoculated with rice sheath blight strains and placed at room temperature (25±4°C) for normal management after inoculation. […]
Please go through the items and note down their pest or weed control at 400 µg/mL.
Numbers only, in %.

entry_smiles=COc1ccc2c(c1)c1c(cc3ccccc3[n+]1C)n2S(=O)(=O)c1ccc(C)cc1 assay_readout="pest or weed control at 400 µg/mL" reported_result=35
entry_smiles=COc1ccc2c(c1)cc1c(c3ccccc3n1S(=O)(=O)c1ccc(C)cc1)[n+]2C assay_readout="pest or weed control at 400 µg/mL" reported_result=30
entry_smiles=Cc1ccc(S(=O)(=O)n2c3ccc(C#N)cc3c3c2cc2ccccc2[n+]3C)cc1 assay_readout="pest or weed control at 400 µg/mL" reported_result=30
entry_smiles=Cc1ccc(S(=O)(=O)n2c3ccccc3c3c2cc2cc(Cl)ccc2[n+]3C)cc1 assay_readout="pest or weed control at 400 µg/mL" reported_result=40
entry_smiles=Cc1ccc(S(=O)(=O)n2c3ccc(F)cc3c3c2cc2ccccc2[n+]3C)cc1 assay_readout="pest or weed control at 400 µg/mL" reported_result=60
entry_smiles=Cc1ccc(S(=O)(=O)n2c3ccccc3c3c2cc2ccc(Cl)cc2[n+]3C)cc1 assay_readout="pest or weed control at 400 µg/mL" reported_result=40
entry_smiles=Cc1ccc(S(=O)(=O)n2c3ccccc3c3c2cc2ccccc2[n+]3CC2CC2)cc1 assay_readout="pest or weed control at 400 µg/mL" reported_result=45

What value of pest or weed control at 400 µg/mL has been reported for the following compound? Cc1ccc(S(=O)(=O)n2c3ccccc3c3c2cc2ccccc2[n+]3CC2CCCCC2)cc1
20
